# test.target: Tumour suppressor p53/oncoprotein Mdm2 (Homo sapiens, UniProt Q00987)
# Sequence (P04637 whole entry): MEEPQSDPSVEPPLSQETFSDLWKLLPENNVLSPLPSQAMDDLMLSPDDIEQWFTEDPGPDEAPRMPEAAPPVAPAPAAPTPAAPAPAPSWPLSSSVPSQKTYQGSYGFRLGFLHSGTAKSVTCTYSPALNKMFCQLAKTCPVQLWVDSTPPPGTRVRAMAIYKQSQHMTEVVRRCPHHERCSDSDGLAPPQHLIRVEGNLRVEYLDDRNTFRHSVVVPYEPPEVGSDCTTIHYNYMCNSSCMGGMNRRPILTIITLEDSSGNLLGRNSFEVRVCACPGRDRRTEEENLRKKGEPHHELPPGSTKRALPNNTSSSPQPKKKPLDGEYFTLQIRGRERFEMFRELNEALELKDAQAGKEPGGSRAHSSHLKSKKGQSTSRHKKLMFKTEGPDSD
# Sequence (Q00987 whole entry): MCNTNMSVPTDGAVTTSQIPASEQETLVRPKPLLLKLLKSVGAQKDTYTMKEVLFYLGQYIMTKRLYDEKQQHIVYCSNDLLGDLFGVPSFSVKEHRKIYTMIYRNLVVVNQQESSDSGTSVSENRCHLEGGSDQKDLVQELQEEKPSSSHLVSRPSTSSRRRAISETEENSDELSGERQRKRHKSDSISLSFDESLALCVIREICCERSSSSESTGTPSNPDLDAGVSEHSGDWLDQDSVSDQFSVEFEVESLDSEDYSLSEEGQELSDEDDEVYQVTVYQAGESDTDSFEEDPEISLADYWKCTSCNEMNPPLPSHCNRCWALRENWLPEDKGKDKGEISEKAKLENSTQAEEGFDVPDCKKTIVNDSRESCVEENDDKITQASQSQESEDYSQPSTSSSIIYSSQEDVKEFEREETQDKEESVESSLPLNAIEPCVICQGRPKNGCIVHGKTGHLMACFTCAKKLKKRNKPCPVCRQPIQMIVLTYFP
# test.method.notes: Inhibition of p53-MDM2 interaction by ELISA
pIC50: −log10 of the molar value.
Label yes for high-side pIC50 (at or above 4) and no for low-side pIC50 (below it).

Reference set (10 entries):
>>> print(df.to_string())
                                   compound  class_name
0  CCCN1C(=O)c2ccccc2C1(OCCNC(=O)c1ccccc1O)c1ccc(C(C)(C)C)cc1 (stereo not drawn)         yes
1  COC(=O)[C@@H](C)COC1(c2ccccc2)c2ccccc2C(=O)N1Cc1ccccc1 (stereo partly drawn)          no
2  CCCN1C(=O)c2ccccc2C1(OCCN1CCNC1=O)c1ccc(C(C)(C)C)cc1 (stereo not drawn)         yes
3  O=C1c2ccccc2C(OC/C=C/c2ccccc2)(c2ccccc2)N1Cc1ccccc1 (stereo not drawn)          no
4  O=C1c2ccccc2C(OCCOc2ccccc2O)(c2ccccc2)N1Cc1ccccc1 (stereo not drawn)          no
5  CC(=O)NCCNC1(c2ccccc2)c2ccccc2C(=O)N1Cc1ccccc1 (stereo not drawn)          no
6  CCCN1C(=O)c2ccccc2C1(OCc1[nH]cnc1C)c1ccc(C(C)(C)C)cc1 (stereo not drawn)         yes
7  C=CCNC(=S)NCCOC1(c2ccccc2)c2ccccc2C(=O)N1Cc1ccccc1 (stereo not drawn)          no
8  COc1ccc([C@@H](O)COC2(c3ccccc3)c3ccccc3C(=O)N2Cc2ccco2)cc1 (stereo partly drawn)          no
9  O=C1c2ccccc2C(OCc2cccc(O)c2)(c2ccccc2)N1Cc1ccccc1 (stereo not drawn)         yes

Task: Dear colleague, could you confirm whether O=C1c2ccccc2C(OCCS(=O)(=O)O)(c2ccccc2)N1Cc1ccccc1 (stereo not drawn) has pIC50 at or above 4?
Result: no

Task: Dear colleague, could you confirm whether COC(=O)CCNC1(c2ccccc2)c2ccccc2C(=O)N1Cc1ccccc1 (stereo not drawn) has pIC50 at or above 4?
Result: no

Task: Dear colleague, could you confirm whether CCOC(=O)CCC(NC1(c2ccccc2)c2ccccc2C(=O)N1Cc1ccccc1)C(=O)OCC (stereo not drawn) has pIC50 at or above 4?
Result: no

* * *

# test.target: Tumour suppressor p53/oncoprotein Mdm2 (Homo sapiens)
# test.method.notes: Inhibition of p53-MDM2 interaction by ELISA
Assignment: determine reported pIC50 for the given compounds.
One number for each entry, as −log10 of the molar value.

Sample answers from the record:
                                   compound  observable  readout_value
0  COCCOC1(c2ccccc2)c2ccccc2C(=O)N1Cc1ccccc1 (stereo not given)       pIC50           3.31
1  CCCCc1ncc(COC2(c3ccccc3)c3ccccc3C(=O)N2Cc2ccccc2)[nH]1 (stereo not given)       pIC50           4.11
2  CCCOC1(c2ccccc2)c2ccccc2C(=O)N1CCCC(OC)OC (stereo not given)       pIC50           4.15

Hi team, please reply with pIC50 for each item in this list.
1. C=CC(=O)OCCOC1(c2ccccc2)c2ccccc2C(=O)N1Cc1ccccc1 (stereo not given)
2. O=C1c2ccccc2C(OCc2ccc(O)cc2)(c2ccccc2)N1Cc1ccccc1 (stereo not given)

Result:
[3.36, 4.10]

Hi team, please reply with pIC50 for each item in this list.
1. O=C(NCCOC1(c2ccccc2)c2ccccc2C(=O)N1Cc1ccccc1)c1ccncc1 (stereo not given)
2. O=C1CCCN1CCOC1(c2ccccc2)c2ccccc2C(=O)N1Cc1ccccc1 (stereo not given)
3. Cc1cccc(N(CCC#N)CCOC2(c3ccccc3)c3ccccc3C(=O)N2Cc2ccccc2)c1 (stereo not given)
4. COc1ccc([C@@H](O)COC2(c3ccccc3)c3ccccc3C(=O)N2CCCO)cc1 (stereo not given in full)
5. N#CCCNC1(c2ccccc2)c2ccccc2C(=O)N1Cc1ccccc1 (stereo not given)
6. O=C(NCCOC1(c2ccccc2)c2ccccc2C(=O)N1Cc1ccccc1)c1ccc(O)cc1O (stereo not given)
7. O=C1c2ccccc2C(NCC(O)c2cccc(O)c2)(c2ccccc2)N1Cc1ccccc1 (stereo not given)

Result:
1: 3.56; 2: 3.41; 3: 3.61; 4: 3.49; 5: 3.72; 6: 4.02; 7: 4.08

Origin of the recorded values: ChEMBL document CHEMBL1137314
